From: ChEMBL document CHEMBL5576048

Protocol: Tmax in Wistar Hannover rat at 10 mg/kg, po administered as ASD form in 2% Tween 80 (v/v) in 0.5% (w/v) methyl cellulose in water formulation by LC-MS/MS analysis
Type: ADME, organism-based
Cond: in vivo

| Chem Smiles | Tmax / min |
| --- | --- |
| COC(=O)N[C@H](C(=O)N1C[C@H](C(F)(F)F)C[C@H]1C(=O)N[C@H](C#N)C[C@@H]1CCCNC1=O)C(C)C | 22.8 |
| CC(C)(C)[C@H](NC(=O)C(F)(F)F)C(=O)N1C[C@H](OC(F)F)C[C@H]1C(=O)N[C@H](C#N)C[C@@H]1CCNC1=O | 45 |
